Test system: Saccharomyces cerevisiae BY4741 SeMeCo community
assay_notes: z-score of subpopulation abundance vs DMSO median, subpopulation auxotrophic for LUM; higher = larger share of this subpopulation than in DMSO controls
experimental_conditions: 10 µM; 24 h; SM minimal medium; subpopulation (auxotrophy): LUM
Classify by z-score of subpopulation abundance. Ranges: lower level (below -0.5), middle level (-0.5 to below -0.3), upper level (-0.3 or more)

[
  {
    "compound": "COc1c(N2CCNC(C)C2)c(F)cc2c(=O)c(C(=O)O)cn(C3CC3)c12 (centres undefined) [Gatifloxacin]",
    "label_class": "middle level"
  },
  {
    "compound": "Nc1ccc(S(=O)(=O)Nc2ccnn2-c2ccccc2)cc1 [Sulfaphenazole]",
    "label_class": "upper level"
  },
  {
    "compound": "CC(C)Cc1ccc(C(C)C(=O)O)cc1 (centres undefined) [Ibuprofen Lysine]",
    "label_class": "lower level"
  },
  {
    "compound": "O=C1CCc2cc(OCCCCc3nnnn3C3CCCCC3)ccc2N1 [Cilostazol]",
    "label_class": "lower level"
  },
  {
    "compound": "CN1C2CCCC1CC(NC(=O)c1nn(C)c3ccccc13)C2 (centres undefined) [Granisetron]",
    "label_class": "middle level"
  },
  {
    "compound": "CCCN(CCc1cccs1)[C@H]1CCc2c(O)cccc2C1 [Rotigotine]",
    "label_class": "upper level"
  },
  {
    "compound": "C=C1CCC2C(C)(CO)C(O)CCC2(C)C1CC=C1C=COC1=O (centres undefined) [Dehydroandrographolide]",
    "label_class": "upper level"
  },
  {
    "compound": "COc1cc(NS(=O)(=O)c2ccc(N)cc2)nc(OC)n1 [SulfadiMethoxine sodium]",
    "label_class": "middle level"
  }
]

* * *

The entries below are paired with their reported z-score of subpopulation abundance.
System: Saccharomyces cerevisiae BY4741 SeMeCo community
assay_notes: z-score of subpopulation abundance vs DMSO median, subpopulation auxotrophic for HU; higher = larger share of this subpopulation than in DMSO controls
experimental_conditions: 10 µM; 24 h; SM minimal medium; subpopulation (auxotrophy): HU
Counter-ions that a name gives are not always drawn.

[
  {
    "molecule": "O=c1[nH]c2ccccc2n1CCN1CCN(c2cccc(C(F)(F)F)c2)CC1 [Flibanserin]",
    "z-score of subpopulation abundance": -0.17
  },
  {
    "molecule": "CC[C@H]1OC(=O)[C@H](C)[C@@H](O[C@H]2C[C@@](C)(OC)[C@@H](O)[C@H](C)O2)[C@H](C)[C@@H](O[C@@H]2O[C@H](C)C[C@H](N(C)C)[C@H]2O)[C@](C)(O)C[C@@H](C)[C@@H]2N[C@@H](COCCOC)O[C@H]([C@H]2C)[C@]1(C)O [Dirithromycin]",
    "z-score of subpopulation abundance": -0.26
  },
  {
    "molecule": "CCC[C@@H]1C[C@@H](C(=O)N[C@@H]([C@H]2O[C@H](SC)[C@H](O)[C@@H](O)[C@H]2O)[C@@H](C)O)N(C)C1 [Lincomycin Hydrochloride Monohydrate]",
    "z-score of subpopulation abundance": 0.41
  },
  {
    "molecule": "Nc1ccc2cc3ccc(N)cc3nc2c1 [Proflavine]",
    "z-score of subpopulation abundance": -6.17
  },
  {
    "molecule": "CC(C)COc1ccc(CNC(=O)N(Cc2ccc(F)cc2)C2CCN(C)CC2)cc1 [Pimavanserin]",
    "z-score of subpopulation abundance": 1.4
  },
  {
    "molecule": "Fc1ccc([C@@H]2CCNC[C@H]2COc2ccc3c(c2)OCO3)cc1 [Paroxetine HCl]",
    "z-score of subpopulation abundance": -1.01
  }
]

* * *

Tested on: Saccharomyces cerevisiae BY4741 SeMeCo community
assay_notes: z-score of prototroph abundance vs DMSO median; higher = larger share of this subpopulation than in DMSO controls
experimental_conditions: 10 µM; 24 h; SM minimal medium; subpopulation (auxotrophy): Prototroph
Structures can show the parent of a compound that is named as a salt.
Threshold rule: z-score of prototroph abundance greater than or equal to -0.8 is MET; below that, NOT MET.

[
  {
    "molecule": "CCCCN(CCCC)CC(O)c1cc(Cl)cc2c1-c1ccc(Cl)cc1/C2=C/c1ccc(Cl)cc1 (stereo not given)",
    "label_class": "NOT MET"
  },
  {
    "molecule": "C[N+](C)(C)CCO.[Cl-] [Choline Chloride]",
    "label_class": "MET"
  },
  {
    "molecule": "CCCCCCCCCCCCCCCCCCOP(=O)([O-])OC1CC[N+](C)(C)CC1",
    "label_class": "NOT MET"
  },
  {
    "molecule": "CO[C@H]1C[C@@H]2CC[C@@H](C)[C@@](O)(O2)C(=O)C(=O)N2CCCC[C@H]2C(=O)O[C@H]([C@H](C)C[C@@H]2CC[C@@H](O)[C@H](OC)C2)CC(=O)[C@H](C)/C=C(\\C)[C@@H](O)[C@@H](OC)C(=O)[C@H](C)C[C@H](C)/C=C/C=C/C=C/1C [Rapamycin (Sirolimus)]",
    "label_class": "NOT MET"
  },
  {
    "molecule": "Clc1ccc(COC(Cn2ccnc2)c2ccc(Cl)cc2Cl)cc1 (stereo not given) [Econazole]",
    "label_class": "NOT MET"
  },
  {
    "molecule": "Nc1c2c(nc3ccccc13)CCCC2 [Tacrine hydrochloride hydrate]",
    "label_class": "MET"
  },
  {
    "molecule": "NC(=O)N1c2ccccc2CC(=O)c2ccccc21 [Oxcarbazepine]",
    "label_class": "MET"
  },
  {
    "molecule": "CC1(C)S[C@@H]2[C@H](NC(=O)Cc3ccccc3)C(=O)N2[C@H]1C(=O)O.CCN(CC)CCOC(=O)c1ccc(N)cc1",
    "label_class": "NOT MET"
  },
  {
    "molecule": "CC(C)[N+]1(C)[C@@H]2CC[C@H]1C[C@@H](OC(=O)C(CO)c1ccccc1)C2 (stereo not given in full) [Ipratropium Bromide]",
    "label_class": "MET"
  },
  {
    "molecule": "COC1C(O)CC(=O)OC(C)CC=CC=CC(OC2CCC(N(C)C)C(C)O2)C(C)CC(CC=O)C1OC1OC(C)C(OC2CC(C)(O)C(O)C(C)O2)C(N(C)C)C1O (stereo not given)",
    "label_class": "MET"
  },
  {
    "molecule": "Nc1nc(N)nc(-c2cc(Cl)ccc2Cl)n1",
    "label_class": "MET"
  },
  {
    "molecule": "CO[C@@H]1[C@@H](O[C@@H]2O[C@H](C)[C@@H](O[C@H]3C[C@@](C)(O)[C@@H](O)[C@H](C)O3)[C@H](N(C)C)[C@H]2O)[C@@H](CC=O)C[C@@H](C)[C@@H](O[C@H]2CC[C@H](N(C)C)[C@@H](C)O2)/C=C/C=C/C[C@@H](C)OC(=O)C[C@H]1OC(C)=O",
    "label_class": "MET"
  },
  {
    "molecule": "COc1ccc2cc3[n+](cc2c1OC)CCc1cc2c(cc1-3)OCO2 [Berberine chloride]",
    "label_class": "MET"
  },
  {
    "molecule": "Cc1c(-c2ccc(O)cc2)n(Cc2ccc(OCCN3CCCCCC3)cc2)c2ccc(O)cc12 [Bazedoxifene Acetate]",
    "label_class": "MET"
  }
]

* * *

Tested on: Saccharomyces cerevisiae BY4741 SeMeCo community
assay_notes: z-score of subpopulation abundance vs DMSO median, subpopulation auxotrophic for HLM; higher = larger share of this subpopulation than in DMSO controls
experimental_conditions: 10 µM; 24 h; SM minimal medium; subpopulation (auxotrophy): HLM
Counter-ions that a name gives are not always drawn.
Classify by z-score of subpopulation abundance. Ranges: LOW (below -0.2), MID (-0.2 to below 0.5), HIGH (0.5 or more)

[
  {
    "compound": "C[N+]1(C)CCC(OC(=O)C(O)(c2ccccc2)C2CCCC2)C1 (stereo not given) [Glycopyrrolate]",
    "label_class": "MID"
  },
  {
    "compound": "Nc1ccc2cc3ccc(N)cc3nc2c1 [Proflavine Hemisulfate]",
    "label_class": "LOW"
  },
  {
    "compound": "Cc1onc(-c2ccccc2Cl)c1C(=O)N[C@@H]1C(=O)N2[C@@H]1SC(C)(C)[C@@H]2C(=O)O [Cloxacillin Sodium]",
    "label_class": "HIGH"
  },
  {
    "compound": "CNS(=O)(=O)CCc1ccc2[nH]cc(C3CCN(C)CC3)c2c1 [Naratriptan HCl]",
    "label_class": "MID"
  },
  {
    "compound": "CCN1CC(CCN2CCOCC2)C(c2ccccc2)(c2ccccc2)C1=O (stereo not given) [Doxapram HCl]",
    "label_class": "LOW"
  },
  {
    "compound": "CCCSc1ccc2[nH]c(NC(=O)OC)nc2c1",
    "label_class": "HIGH"
  },
  {
    "compound": "CC[N+](CC)(CC)CC [Tetraethylammonium bromide]",
    "label_class": "MID"
  },
  {
    "compound": "CC[C@@H]1C(=O)OC[C@@H]1Cc1cncn1C [Pilocarpine HCl]",
    "label_class": "MID"
  },
  {
    "compound": "N#Cc1ccc(Oc2ccc3c(c2)COB3O)cc1",
    "label_class": "HIGH"
  },
  {
    "compound": "Cc1ncc([N+](=O)[O-])n1C",
    "label_class": "MID"
  }
]

These measurements were taken from the supplement of paper PMC8975748.
